Cited source for all entries: PubChem BioAssay AID1529

# ASSAY_TARGET: Mitogen-activated protein kinase kinase kinase 3 (Homo sapiens) (UniProt Q99759)
# Sequence (Q99759 whole entry, looked up): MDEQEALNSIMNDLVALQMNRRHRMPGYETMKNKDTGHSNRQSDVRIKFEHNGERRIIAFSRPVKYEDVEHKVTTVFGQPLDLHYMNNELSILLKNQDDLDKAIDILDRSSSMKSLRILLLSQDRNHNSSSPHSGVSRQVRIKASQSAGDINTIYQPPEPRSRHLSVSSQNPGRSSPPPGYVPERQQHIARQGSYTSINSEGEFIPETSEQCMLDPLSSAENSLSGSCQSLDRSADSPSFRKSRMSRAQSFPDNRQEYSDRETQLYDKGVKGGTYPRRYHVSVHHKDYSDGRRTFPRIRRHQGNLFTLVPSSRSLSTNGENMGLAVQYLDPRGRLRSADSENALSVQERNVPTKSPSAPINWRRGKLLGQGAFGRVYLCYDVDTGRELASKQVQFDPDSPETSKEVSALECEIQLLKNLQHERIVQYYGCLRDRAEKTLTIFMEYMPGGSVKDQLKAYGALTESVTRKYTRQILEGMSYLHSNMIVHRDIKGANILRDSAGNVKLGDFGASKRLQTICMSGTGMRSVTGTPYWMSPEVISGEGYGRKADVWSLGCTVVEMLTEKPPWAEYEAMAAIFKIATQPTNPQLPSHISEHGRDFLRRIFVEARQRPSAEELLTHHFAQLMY
# PROCEDURE_TEXT: modulators of MEKK3-MEK5 PB1 binding, primary screen, biochemical, wildtype MEKK3, multiplex bead flow cytometry, Alexa488-MEK5 (AID 1529);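 also: Alexa488 bead fluorescence after subtracting the streptavidin-only scavenger bead signal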
# ASSAY_SETUP: bead-based flow cytometry, Alexa488-MEK5 binding to MEKK3; at 10 µM; actives lie on both sides; 0 = blocked by unlabeled MEK5, 100 = vehicle
About 4,200 (1.4%) of roughly 290,000 compounds were called active.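 The calls were made as follows: active = binding response more than 3 SD above or below the average of its plate-row segment, actives on both sides; inconclusive = wells at one plate position flagged as instrument error; inactive = the rest.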 This excerpt belongs to a sample that is enriched for actives.
Pick one: 1 (yes) for active, 0 (no) for inactive

Query: Each molecule tested received a call. Report the one for "COc1ccc(CN(C)C(=O)Cc2ccsc2)c(OC)c1OC" .
Response: 0 (no)

Query: Each molecule tested received a call. Report the one for CCn1cc(CN2CCN(CC(C)(C)C)C(CCO)C2)c2ccccc21 (stereo not given) .
Response: 0 (no)

Query: Each molecule tested received a call. Report the one for "Cc1ccc2occ(/C=N/NC(=O)c3ccccc3C)c(=O)c2c1" .
Response: 0 (no)

Query: Each molecule tested received a call. Report the one for "CN1CCN(C(=O)c2ccccc2NC(=O)COc2ccccc2Cl)CC1" .
Response: 0 (no)

Query: Each molecule tested received a call. Report the one for CC1(OC(=O)C2CCCC2)C(=O)C=C2C=C(c3ccc(C#N)cc3)OC=C2C1=O (stereo not given) .
Response: 0 (no)

Query: Each molecule tested received a call. Report the one for "Cc1cc(-c2csc(N)n2)c(C)n1Cc1ccccc1" .
Response: 0 (no)

Query: Each molecule tested received a call. Report the one for "CCOc1ccc(Nc2nc(Cl)nc(N3CCN(c4ccc(OC)cc4)CC3)n2)cc1" .
Response: 0 (no)

Query: Each molecule tested received a call. Report the one for "CC(=O)c1c(C)oc2ccc(NS(=O)(=O)c3ccc(C(=O)O)cc3)cc12" .
Response: 0 (no)

Query: Each molecule tested received a call. Report the one for "CC(=O)Nc1cccc(Oc2cc(C#N)c(C#N)cc2N2CCOCC2)c1" .
Response: 0 (no)

Query: Each molecule tested received a call. Report the one for "Cc1nnc(SCC(=O)Nc2ccc(S(=O)(=O)Nc3ccc(Cl)nn3)cc2)s1" .
Response: 0 (no)

Query: Each molecule tested received a call. Report the one for COC(=O)CCCC1=CC2=CC(=O)C(C)(OC(=O)c3cccs3)C(=O)C2=CN1CC1CC1 (stereo not given) .
Response: 0 (no)

Query: Each molecule tested received a call. Report the one for "O=C(CCNS(=O)(=O)c1cccs1)N1CCN(c2ccc(F)cc2)CC1" .
Response: 0 (no)

Query: Each molecule tested received a call. Report the one for "O=C(O)CSCc1nc2ccccc2s1" .
Response: 0 (no)

Query: Each molecule tested received a call. Report the one for "C=CCOC(=O)C1=C[C@H](c2ccc(Br)cc2)C[C@H](OCCCCO)O1" .
Response: 0 (no)

Query: Each molecule tested received a call. Report the one for "Clc1ccc(-c2nnc(SCc3nc4ccccc4s3)o2)cc1" .
Response: 1 (yes)

Query: Each molecule tested received a call. Report the one for "CCOC(=O)/C=c1\s/c(=C\c2ccc(C#N)cc2)c(=O)n1CC(=O)Nc1cccc(C)c1C" .
Response: 0 (no)

Query: Each molecule tested received a call. Report the one for CC1=NN(C(=O)CCCc2ccccc2)C(O)(C(F)(F)F)C1 (stereo not given) .
Response: 0 (no)

Query: Each molecule tested received a call. Report the one for "Cc1ccccc1-c1ccc(Nc2ccc(C(=O)N3CCOCC3)cc2)nn1" .
Response: 1 (yes)

Query: Each molecule tested received a call. Report the one for "COC(=O)c1cc(NC(=O)c2ccco2)ccc1N1CCOCC1" .
Response: 0 (no)

Query: Each molecule tested received a call. Report the one for "O=C(NCc1ccco1)c1ccc(Cn2c(=O)c3sccc3n(Cc3ccc(F)cc3)c2=O)cc1" .
Response: 0 (no)

* * *

# ASSAY_TARGET: Mitogen-activated protein kinase kinase kinase 3 (Homo sapiens) (UniProt Q99759)
# PROCEDURE_TEXT: modulators of MEKK3-MEK5 PB1 binding, primary screen, biochemical, wildtype MEKK3, multiplex bead flow cytometry, Alexa488-MEK5 (AID 1529);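 also: Alexa488 bead fluorescence after subtracting the streptavidin-only scavenger bead signal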
# ASSAY_SETUP: bead-based flow cytometry, Alexa488-MEK5 binding to MEKK3; at 10 µM; actives lie on both sides; 0 = blocked by unlabeled MEK5, 100 = vehicle
Hit rate of the full screen: of about 290,000 compounds, about 4,200 (1.4%) were called active. What follows is part of a selection rich in actives, with near analogues and random picks from the rest.
QUANTITY_KIND: binding response (% of control)

Just so you know, measured binding response (% of control) for "CCOC(=O)c1ccc(NC(=S)Nc2cc(C)cc(C)n2)cc1" came out at 77% (inactive)

Just so you know, measured binding response (% of control) for "COc1cccc(CNS(=O)(=O)c2ccc3c(c2)N(C(C)=O)CCS3)c1" came out at 93% (inactive)

Just so you know, measured binding response (% of control) for CCCc1nnc(SCC(=O)N2C(C)CCCC2C)n1CC (stereo not drawn) came out at 145% (active)

Just so you know, measured binding response (% of control) for "O=C(CCN1CCN(C/C=C/c2ccccc2)CC1)Nc1ccccc1Cl" came out at 104% (inactive)

Just so you know, measured binding response (% of control) for "COc1ccc(/C=C/c2c(-c3cccc(C)c3)oc3ccc(-c4ccc5c(c4)OCO5)cc23)cc1" came out at 94% (inactive)

Just so you know, measured binding response (% of control) for O=C(CN1C(=O)CSC1=O)N1CCCC(Nc2ccc(F)cc2)C1 (stereo not drawn) came out at 102% (inactive)

Just so you know, measured binding response (% of control) for "O=C(O)c1cccnc1NC1CCCC1" came out at 80% [inhibitor] (active)

Just so you know, measured binding response (% of control) for "CCNC(=O)Nc1ccc(S(=O)(=O)Nc2cnc(C)nc2C)cc1" came out at 101% (inactive)

Just so you know, measured binding response (% of control) for "COc1ccc(CNC(=O)[C@@H]2CC=C[C@@H]3CCN(C4CC4)C(=O)[C@@H]32)cc1" came out at 101% (inactive)

Just so you know, measured binding response (% of control) for O=C(c1cccs1)N(Cc1cc2ccccc2[nH]c1=O)CC1CCCO1 (stereo not drawn) came out at 99% (inactive)

Just so you know, measured binding response (% of control) for "COc1ccc(C(=O)CSc2nnc(COc3ccccc3)n2Cc2ccco2)cc1" came out at 102% (inactive)

Just so you know, measured binding response (% of control) for "Cc1onc(-c2ccccc2)c1C(=O)NNC(=S)NC(=O)c1ccc(F)cc1" came out at 98% (inactive)

Just so you know, measured binding response (% of control) for "COc1ccc(C(=O)NC(=S)NNC(=O)c2c(-c3ccccc3)noc2C)cc1" came out at 134% (active)

Just so you know, measured binding response (% of control) for "COc1ccc(C(=O)NNC(=S)NC(=O)c2ccccc2)cc1" came out at 101% (inactive)

Just so you know, measured binding response (% of control) for "COc1ccccc1N(CC(=O)N/N=C(\C)c1ccccc1O)S(=O)(=O)c1ccc(C)cc1" came out at 102% (inactive)

Just so you know, measured binding response (% of control) for CC(C)C(C)NC(=O)COc1ncnc2ccccc12 (stereo not drawn) came out at 106% (inactive)

Just so you know, measured binding response (% of control) for CC1CN(C(=O)c2ccccc2NS(=O)(=O)c2cccc([N+](=O)[O-])c2)CC(C)O1 (stereo not drawn) came out at 131% (active)

Just so you know, measured binding response (% of control) for "CCCc1nc2c(c(=O)c3ccccc3n2C)c(=O)n1-c1cc(C)cc(C)c1" came out at 101% (inactive)

* * *

For each record, write down the corresponding binding response (% of control).
# ASSAY_TARGET: Mitogen-activated protein kinase kinase kinase 3 (Homo sapiens)
# PROCEDURE_TEXT: modulators of MEKK3-MEK5 PB1 binding, primary screen, biochemical, wildtype MEKK3, multiplex bead flow cytometry, Alexa488-MEK5 (AID 1529);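 also: Alexa488 bead fluorescence after subtracting the streptavidin-only scavenger bead signal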
# ASSAY_SETUP: bead-based flow cytometry, Alexa488-MEK5 binding to MEKK3; at 10 µM; actives lie on both sides; 0 = blocked by unlabeled MEK5, 100 = vehicle
The campaign covered roughly 290,000 compounds. About 4,200 (1.4%) were called active. The list comes from a sample in which actives are over-represented; it also holds close analogues and randomly drawn compounds.
Give a bare numeral; the unit % is implied.

Just so you know, measured binding response (% of control) for "C=CCN1CN(S(=O)(=O)c2ccc(OC)cc2)c2nc3ccccc3nc21" came out at 100

Just so you know, measured binding response (% of control) for CCOC(=O)c1cc2occc2n1CC(=O)NC1CCC(C)CC1 (centres undefined) came out at 104

Just so you know, measured binding response (% of control) for "O=C(NCCC1=CCCCC1)c1ccc(Cl)c([N+](=O)[O-])c1" came out at 153

Just so you know, measured binding response (% of control) for "Cc1ccc(-c2nc3ccccc3[nH]2)cc1NC(=O)c1sc2ccccc2c1Cl" came out at 102
